Reference source for all entries: paper PMC10618370

molecular target: E. coli MurD (Escherichia coli); test: MurD inhibition assay (Malachite green); format: biochemical; conditions: 0.25 h; residual activity at 100 µM compound; mean ± SD of three independent experiments; read-out: RA (%) @ 100 µM MurD
Sequence (P14900 whole entry): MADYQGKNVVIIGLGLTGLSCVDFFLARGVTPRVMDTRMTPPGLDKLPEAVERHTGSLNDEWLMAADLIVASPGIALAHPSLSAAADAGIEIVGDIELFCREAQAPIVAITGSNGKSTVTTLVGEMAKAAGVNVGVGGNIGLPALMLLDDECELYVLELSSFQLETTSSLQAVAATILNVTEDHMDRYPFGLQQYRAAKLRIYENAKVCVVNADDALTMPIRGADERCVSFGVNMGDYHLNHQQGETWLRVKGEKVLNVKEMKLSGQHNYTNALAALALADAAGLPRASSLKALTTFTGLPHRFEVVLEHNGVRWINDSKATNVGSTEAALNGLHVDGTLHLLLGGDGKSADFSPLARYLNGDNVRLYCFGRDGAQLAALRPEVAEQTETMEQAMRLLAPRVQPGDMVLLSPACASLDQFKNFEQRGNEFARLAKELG
I'd appreciate it if you marked entries True when remaining activity at 100 µM is lower than 90% and False when it is not.

MOLECULE	CLASS_LABEL
COc1cc(O)c2c(=O)c(O)c(-c3ccc(O)c(O)c3)oc2c1	True
C[C@@H]1O[C@@H](Oc2c(-c3ccc(O)c(O)c3)oc3cc(O)cc(O)c3c2=O)[C@H](O)[C@H](O)[C@H]1O	True
Oc1cc(O)c2c(c1)O[C@H](c1ccc(O)c(O)c1)[C@H](O)C2 [Compound 21, (–)-epicatechin]	False
O=c1c(OC2OC(CO)C(O)C(O)C2O)c(-c2ccc(O)c(O)c2)oc2cc(O)cc(O)c12 (centres unmarked)	False
COc1cc(O)c(CC=C(C)C)c2c1C(=O)C[C@@H](c1ccc(O)cc1)O2	False
COc1cc(OC)c2c(=O)cc(-c3ccc(OC)c(OC)c3)oc2c1	False
O=c1cc(-c2ccc(O)c(O)c2)oc2cc(OC3OC(CO)C(O)C(O)C3O)cc(O)c12 (centres unmarked)	True
CC1OC(OCC2OC(Oc3c(-c4ccc(O)c(O)c4)oc4cc(O)cc(O)c4c3=O)C(O)C(O)C2O)C(O)C(O)C1O (centres unmarked)	False
O=c1cc(-c2ccccc2)oc2cc(O)cc(O)c12	True
Cc1c(O)cc(O)c2c1O[C@H](c1ccccc1)CC2=O	False
Oc1cc(O)c2c(c1)O[C@H](c1ccc(O)c(O)c1)[C@@H](O)C2 [Compound 22, (+)-catechin]	False
COc1ccc([C@@H]2CC(=O)c3c(O)cc(O)cc3O2)cc1O	False
